// each record: one item and its MIC for Klebsiella pneumoniae
Report the figure in µM without appending any unit label.

Answered cases to consult:
compound	output_unit	MIC
CC(C)C[C@H](NC(=O)[C@H](CCCCN)NC(=O)[C@H](CCCN=C(N)N)NC(=O)[C@H](Cc1ccccc1)NC(=O)[C@H](Cc1ccccc1)NC(=O)[C@H](CCCCN)NC(=O)[C@H](CCCN=C(N)N)NC(=O)[C@H](CC(C)C)NC(=O)[C@H](CC(C)C)NC(=O)[C@@H](N)CCCN=C(N)N)C(=O)N[C@@H](CCCCN)C(=O)N[C@@H](CCCCN)C(=O)N[C@@H](CO)C(=O)N[C@H](C(=O)O)C(C)C [RLLRKFFRKLKKSV]	µM	17.6
CC(C)C[C@H](NC(=O)[C@H](C)NC(=O)[C@H](Cc1c[nH]c2ccccc12)NC(=O)[C@H](CC(C)C)NC(=O)[C@@H](N)Cc1ccccc1)C(=O)N[C@@H](Cc1ccccc1)C(=O)N[C@@H](CCCCN)C(=O)N[C@H](C(=O)N[C@@H](C)C(=O)N[C@@H](CO)C(=O)N[C@@H](CCCCN)C(=O)O)C(C)C [FLWALFKVASK]	µM	76.4

Next item in the queue.
Query block: Provide Klebsiella pneumoniae MIC reading for CC(C)C[C@H](NC(=O)[C@@H](NC(=O)[C@H](CCCCN)NC(=O)[C@H](CO)NC(=O)[C@H](C)NC(=O)[C@@H](NC(=O)[C@H](CCCCN)NC(=O)[C@H](Cc1ccccc1)NC(=O)[C@H](CC(C)C)NC(=O)[C@H](C)NC(=O)CNC(=O)[C@H](CC(C)C)NC(=O)[C@@H](N)Cc1ccccc1)C(C)C)C(C)C)C(=O)O [FLGALFKVASKVL] .
Result block: 18

----------
# Tested on: Bacillus subtilis ATCC 6633
Parameter MIC: see the listing below.
Numeric answer only, unit µM assumed.

input_smiles	test_result
C[C@H](NC(=O)[C@H](C)NC(=O)[C@H](CCCCN)NC(=O)[C@H](CCCCN)NC(=O)[C@@H](N)CCCCN)C(=O)N[C@@H](C)C(=O)N[C@@H](Cc1ccccc1)C(=O)N[C@@H](C)C(=O)N[C@@H](C)C(=O)N[C@@H](Cc1c[nH]c2ccccc12)C(=O)N[C@@H](C)C(=O)N[C@@H](C)C(=O)N[C@@H](Cc1ccccc1)C(=O)N[C@@H](C)C(=O)N[C@@H](CCCCN)C(=O)N[C@@H](CCCCN)C(=O)N[C@@H](CCCCN)C(N)=O	16

Continue with the next compound.
Query block: Answer with MIC of "CC[C@H](C)[C@H](N)C(=O)N[C@H](C(=O)N[C@@H](CCCCN)C(=O)N[C@H](C(=O)N[C@H](C(=O)N[C@H](C(=O)N[C@@H](CCCCN)C(=O)N[C@@H](CC(C)C)C(=O)N[C@@H](CC(C)C)C(=O)N[C@@H](CC(N)=O)C(=O)N[C@@H](CCCN=C(N)N)C(=O)N[C@@H](CC(C)C)C(=O)N[C@@H](CO)C(=O)N[C@@H](CCCCN)C(=O)N[C@H](C(=O)N[C@@H](CC(C)C)C(=O)N[C@@H](CO)C(=O)N[C@@H](CCCCN)C(=O)O)[C@@H](C)CC)[C@@H](C)O)[C@@H](C)CC)C(C)C)[C@@H](C)O" measured for Bacillus subtilis ATCC 6633.
Result block: 4.2
